Reference for the values: paper PMC12718374

Target: Phaeobacter sp. MED193 GpxB (MED193_19449) (Roseobacter sp. MED193, UniProt A3X5C8)
Sequence (A3X5C8 1-326 limits assumed): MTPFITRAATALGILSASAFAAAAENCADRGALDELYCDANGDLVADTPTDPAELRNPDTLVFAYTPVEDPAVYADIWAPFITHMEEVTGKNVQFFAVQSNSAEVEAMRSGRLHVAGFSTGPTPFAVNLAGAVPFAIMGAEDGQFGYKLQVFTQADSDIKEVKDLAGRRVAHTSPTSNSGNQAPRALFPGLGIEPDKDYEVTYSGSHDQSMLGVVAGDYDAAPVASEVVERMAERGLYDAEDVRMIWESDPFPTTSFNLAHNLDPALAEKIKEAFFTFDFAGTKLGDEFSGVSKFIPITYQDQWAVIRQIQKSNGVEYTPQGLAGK
Test: Microscale thermophoresis (MST) binding affinity assay, purified recombinant GpxB
Settings: 22 °C, 20 mM HEPES pH 7.4, 100 mM NaCl, recombinant GpxB of Phaeobacter sp. MED193
pKd: −log10 of the molar value.

- compound: "O=P(O)(O)OC[C@@H](O)CO [G1P, sn-glycerol-1-phosphate]"
  pKd: 5.61
- compound: "O=P(O)(O)OC[C@H](O)CO [G3P, sn-glycerol-3-phosphate]"
  pKd: 5.99

====

As shown below, each of these compounds has a reported Kd value.
Molecular target: Phaeobacter sp. MED193 UgpB (MED193_07903) (Phaeobacter sp. MED193 (Roseobacter sp. MED193), UniProt Z9VP90JAR2)
Sequence (Z9VP90JAR2 43-453 limits assumed): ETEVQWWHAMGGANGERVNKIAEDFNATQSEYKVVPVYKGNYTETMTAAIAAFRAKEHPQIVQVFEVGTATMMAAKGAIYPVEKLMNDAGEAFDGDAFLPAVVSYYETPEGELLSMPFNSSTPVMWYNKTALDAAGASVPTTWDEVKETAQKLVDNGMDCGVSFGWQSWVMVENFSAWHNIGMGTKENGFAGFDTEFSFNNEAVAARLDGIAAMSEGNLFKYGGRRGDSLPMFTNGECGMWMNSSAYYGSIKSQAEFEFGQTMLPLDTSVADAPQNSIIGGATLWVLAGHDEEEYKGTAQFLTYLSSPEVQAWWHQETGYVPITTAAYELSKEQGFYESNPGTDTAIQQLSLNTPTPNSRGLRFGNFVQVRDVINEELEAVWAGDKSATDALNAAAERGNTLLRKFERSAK
Test: MST binding affinity assay, purified recombinant UgpB
Conditions: 22 °C, 20 mM HEPES pH 7.4, 100 mM NaCl, recombinant UgpB of Phaeobacter sp. MED193

- compound: "O=P(O)(O)OC[C@H](O)CO [G3P, sn-glycerol-3-phosphate]"
  Kd, nM: 800
- compound: "O=P(O)(O)OC[C@@H](O)CO [G1P, sn-glycerol-1-phosphate]"
  Kd, nM: 2360

====

This section lists Kd readings for GpxB^DSM11874 (GpxB homolog from Marinobacter sp. DSM11874) (Marinobacter sp. DSM 11874).

- molecule: "O=P(O)(O)OC[C@@H](O)CO [G1P, sn-glycerol-1-phosphate]"
  Kd [nM]: 1720
- molecule: "O=P(O)(O)OC[C@H](O)CO [G3P, sn-glycerol-3-phosphate]"
  Kd [nM]: 1060
